target-system: HDAC3 (Homo sapiens)
Sequence (O15379 whole entry): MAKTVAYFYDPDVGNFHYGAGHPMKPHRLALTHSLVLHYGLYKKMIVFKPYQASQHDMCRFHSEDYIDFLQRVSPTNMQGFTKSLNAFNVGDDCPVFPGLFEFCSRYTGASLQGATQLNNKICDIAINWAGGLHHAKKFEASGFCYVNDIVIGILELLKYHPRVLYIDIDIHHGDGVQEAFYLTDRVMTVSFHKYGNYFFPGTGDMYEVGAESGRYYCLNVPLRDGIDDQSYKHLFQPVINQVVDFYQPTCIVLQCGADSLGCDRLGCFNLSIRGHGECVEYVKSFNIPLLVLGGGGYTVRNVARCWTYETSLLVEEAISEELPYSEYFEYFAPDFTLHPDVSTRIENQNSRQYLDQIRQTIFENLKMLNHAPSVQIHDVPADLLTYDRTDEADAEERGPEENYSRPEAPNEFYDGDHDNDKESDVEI
Sequence (Q9Y618 395-489 partner limits assumed): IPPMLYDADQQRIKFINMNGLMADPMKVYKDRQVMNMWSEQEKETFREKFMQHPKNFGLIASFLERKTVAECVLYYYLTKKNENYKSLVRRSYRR
property-label: IC50
Output should be the measured figure followed by the unit it is expressed in.

molecule | property-label | experimental-value
CCCNNC(=O)c1ccc(C=CC(=O)NCCc2ccccc2)cc1 [Compound 9l] | IC50 | 6 nM
CCCNNC(=O)C=Cc1ccc(CNC2Cc3ccccc3C2)cc1 [Compound 25e] | IC50 | 3.1 nM
CCCNNC(=O)C=Cc1ccc(CNCc2ccccc2)cc1 [Compound 25b] | IC50 | 2.7 nM
CCCNNC(=O)C=Cc1ccc(CN2C(=O)c3ccccc3C2=O)cc1 [Compound 30] | IC50 | 27.8 nM

IN: If you can, please state the reported IC50 value of CCCNNC(=O)C=Cc1ccc(CNCc2ccccn2)cc1 [Compound 25d] .
OUT: 13 nM

IN: Param item: CCCNNC(=O)C=Cc1ccc(CNc2ccccc2)cc1 [Compound 25a]
OUT: 8.2 nM
